target: Growth hormone secretagogue receptor type 1 (Homo sapiens); test: Tested for growth hormone secretagogue activity in A93 cell line using a calcium flux assay at 10 uM (Relative to compound T1); assay type: functional, cell-based
Sequence (Q92847 whole entry): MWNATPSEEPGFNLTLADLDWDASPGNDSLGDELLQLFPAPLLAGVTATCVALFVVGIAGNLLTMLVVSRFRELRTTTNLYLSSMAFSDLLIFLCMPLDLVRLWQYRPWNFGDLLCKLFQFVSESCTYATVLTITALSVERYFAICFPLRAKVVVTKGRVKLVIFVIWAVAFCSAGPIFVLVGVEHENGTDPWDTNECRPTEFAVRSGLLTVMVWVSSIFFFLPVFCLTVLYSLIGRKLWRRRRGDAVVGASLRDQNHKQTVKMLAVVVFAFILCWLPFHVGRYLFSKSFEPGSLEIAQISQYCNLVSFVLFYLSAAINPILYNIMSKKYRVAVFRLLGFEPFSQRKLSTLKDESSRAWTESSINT
Rule: Activity under 0.5 gives NO, otherwise YES.

Examples with answers:
Reported Activity at or above 0.5? CCN(CC)CCCN(C(=O)CCN1CCCc2ccccc21)C(C(=O)NC1CCCCC1)c1ccc(F)cc1 (stereo not drawn)
NO

Reported Activity at or above 0.5? CCN(CC)CCCN(C(=O)c1ccc(-c2ccccc2)[nH]1)C(C(=O)NC1CCCCC1)c1ccncc1 (stereo not drawn)
YES

Reported Activity at or above 0.5? CCCC(C(=O)NC1CCCCC1)N(CCCN(CC)CC)C(=O)c1ccc(-c2ccccc2)[nH]1 (stereo not drawn)
YES

Reported Activity at or above 0.5? CCN(CC)CCCN(C(=O)c1ccc(-c2ccccc2)[nH]1)C(C)C(=O)NC(C)(C)C (stereo not drawn)
NO

Reported Activity at or above 0.5? CCN(CC)CCN(C(=O)c1ccc(-c2ccccc2)[nH]1)C(C(=O)NC1CCCCC1)c1ccc(F)cc1 (stereo not drawn)
NO

***
Reported Activity at or above 0.5? CCCCC(C(=O)NC1CCCCC1)N(CCCN(CC)CC)C(=O)c1ccc(-c2ccccc2)[nH]1 (stereo not drawn)
YES

Reported Activity at or above 0.5? CCN(CC)CCCN(C(=O)c1ccc(-c2ccccc2)[nH]1)C(Cc1ccc(C)o1)C(=O)NC1CCCCC1 (stereo not drawn)
NO

Reported Activity at or above 0.5? CCN(CC)CCCN(C(=O)c1ccc(-c2ccccc2)[nH]1)C(C(=O)NC1CCCCC1)c1ccc(O)cc1 (stereo not drawn)
YES

* * *

biological target: Growth hormone secretagogue receptor type 1 (Homo sapiens); assay: Binding affinity for human growth hormone secretagogue receptor was determined using [125I]ghrelin
property-label: Ki (nM)
Number in nM, nothing else.

Sample records with Ki:
Entry under review: CCN(CC)CCCN(C(=O)c1ccc(-c2ccccc2)[nH]1)C(C)C(=O)NC1CCCCC1 (centres undefined) . Reported Ki?
1920

Entry under review: CCN(CC)CCN(C(=O)c1ccc(-c2ccccc2)[nH]1)C(C(=O)NC1CCCCC1)c1ccc(F)cc1 (centres undefined) . Reported Ki?
1370

Entry under review: CCN(CC)CCCN(C(=O)c1ccc(-c2ccccc2)[nH]1)C(C(=O)NCc1ccc(F)cc1)c1ccc(F)cc1 (centres undefined) . Reported Ki?
1150

Entry under review: CCC(C(=O)NC1CCCCC1)N(CCCN(CC)CC)C(=O)c1ccc(-c2ccccc2)[nH]1 (centres undefined) . Reported Ki?
220

Entry under review: CCCC(C(=O)NC1CCCCC1)N(CCCN(CC)CC)C(=O)c1ccc(-c2ccccc2)[nH]1 (centres undefined) . Reported Ki?
870

***
Entry under review: CCN(CC)CCCN(C(=O)c1ccc(-c2ccccc2)[nH]1)C(C(=O)NC1CCCCC1)c1ccc(OC)c(OC)c1 (centres undefined) . Reported Ki?
2630

Entry under review: CCN(CC)CCCN(C(=O)c1ccc(-c2ccccc2)[nH]1)C(C(=O)NC1CCCCC1)c1ccc(F)cc1 (centres undefined) . Reported Ki?
1290

Entry under review: CCN(CC)CCCN(C(=O)CCN1CCCc2ccccc21)C(C(=O)NC1CCCCC1)c1ccc(F)cc1 (centres undefined) . Reported Ki?
2030

Entry under review: CCN(CC)CCCN(C(=O)c1ccc(-c2ccccc2)[nH]1)C(C)C(=O)NC(C)(C)C (centres undefined) . Reported Ki?
1180
